EXPERIMENTAL_SYSTEM: T1, HLA-A*02:01 on T2 cells alone (no peptide added) (human)
T1 construct: TAP-deficient T2 cells without pulsed peptide; negative control target, and the HLA molecule whose stabilisation by peptides is read in the T2 stabilization assay; also called HLA-A*02 molecule; HLA-A2 molecule
PROCEDURE_DETAILS: flow cytometry, phage on T2 cells, no peptide
READOUT_LABEL: MFI
Form field (numeric): enter value without unit.

Query: Data request, read-out MFI, for EXT017-27 scFv phage clone (scFv, full-length scFv with His+HA tags; also called EXT017-27 phage; phage clone #27) scFv: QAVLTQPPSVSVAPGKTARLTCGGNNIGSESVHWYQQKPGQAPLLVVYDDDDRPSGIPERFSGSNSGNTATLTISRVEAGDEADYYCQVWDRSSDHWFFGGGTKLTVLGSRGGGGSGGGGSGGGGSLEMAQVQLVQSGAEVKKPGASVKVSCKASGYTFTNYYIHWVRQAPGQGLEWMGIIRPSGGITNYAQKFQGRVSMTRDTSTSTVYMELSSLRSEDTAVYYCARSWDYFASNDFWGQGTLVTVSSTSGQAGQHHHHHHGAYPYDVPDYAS
Result: 90.4
